// provenance: paper PMC9482650

Consider the following binders; for each one, report its pKd.
# tested.system: PTPN3, P26045
# Sequence (P26045 505-587): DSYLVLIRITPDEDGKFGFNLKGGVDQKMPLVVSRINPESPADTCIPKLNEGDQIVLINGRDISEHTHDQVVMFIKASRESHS
# experiment: holdup assay
# Parameters: key: below the threshold = too weak to quantify, mostly under pKd 3.1 to 4
# measurement.conditions: plain residues with an end cap or a label only (N-terminal biotin on a linker: ttds)

# annotated cases, reported pKd shown
[[record]]
binder = "NDPAWDETNL [ARHGEF7, Q14155;Q14155-1]"
attribute_measured = "pKd"
result = 4.44

[[record]]
binder = "RPLPRKVSQL [DOCK4, Q8N1I0]"
attribute_measured = "pKd"
result = 4.73


Okay, now this binder:
pKd recorded for this binder, EVVHTPETSV [SLC16A3, O15427] , is 4.86
